test system: Escherichia coli DC2; assay: In Vitro Anti-Bacterial Activity Test (MIC, agar dilution); assay type: cell-based; conditions: Escherichia coli, DC2, 18 h
Structures can show the parent of a compound that is named as a salt.
Recorded MIC values for a group of compounds are listed next.
Give your result in µg/mL as a bare value.

# MIC (compound: NC1CCN(c2nc3c(cc2F)c(=O)c(C(=O)C[N+](=O)[O-])cn3-c2ccc(F)cc2F)C1 (centres unmarked) [Example 8] ) is 0.013

# MIC (compound: CC1CN(c2cc3c(cc2F)c(=O)c(C(=O)C[N+](=O)[O-])cn3-c2ccc(F)cc2F)CCN1 (centres unmarked) [Example 10, hydrochloride] ) is 0.391

# MIC (compound: CN[C@@H]1CCN(c2c(F)cc3c(=O)c(C(=O)C[N+](=O)[O-])cn(C4CC4)c3c2Cl)C1 [Example 61, hydrochloride] ) is 0.013

# MIC (compound: CCOC(=O)C(C(=O)OCC)C(=O)c1cn(C2CC2)c2c(Cl)c(N3CCC(N)C3)c(F)cc2c1=O (centres unmarked) [Example 22, hydrochloride] ) is 0.025

* * *

Recorded MIC values for a group of compounds are listed next.
System: Staphylococcus aureus 285
Assay: In Vitro Anti-Bacterial Activity Test (MIC, agar dilution)
Format: cell-based
Settings: Staphylococcus aureus, 285, 18 h, Staphylococcus aureus 285; Muller-Hinton agar, 37° C., 18 hours; read-out: MIC
Experimental: The above in vitro antibacterial activity test was carried out in accordance with the agar culture medium dilution method (Hoechst 345) by using Muller-Hinton agar medium to determine the minimum inhibitory concentration (MIC). The strains having 10^7 C.F.U./ml were inoculated on the culture medium, and the growth of the strains was observed after incubating them at 37° C. for 18 hours, in which ciprofloxacin was used as a control antibacterial agent. […]
Where a name gives a salt, the structure may show the parent alone.
Could you give the number and then its unit, please?

Check out these entries, answers already filled in.
{"columns": ["Compound", "MIC"],
 "data": [
  ["CCOC(=O)CC(=O)c1cn(C2CC2)c2c(Cl)c(N3CC[C@@H](N)C3)c(F)cc2c1=O [Example 26, hydrochloride]", "0.098 µg/mL"],
  ["CCOC(=O)C(C(=O)OCC)C(=O)c1cn(C2CC2)c2c(Cl)c(N3CC[C@H](N)C3)c(F)cc2c1=O [Example 24, hydrochloride]", "0.049 µg/mL"]
]}

# MIC (compound: Cc1c(N2CCC(N)C2)c(F)cc2c(=O)c(C(=O)C[N+](=O)[O-])cn(C3CC3)c12 (stereo not drawn) [Example 50, hydrochloride] ) is 0.098 µg/mL

* * *

system: Salmonella typhimurium; experiment: In Vitro Anti-Bacterial Activity Test (MIC, agar dilution); type: cell-based; conditions: Salmonella enterica; Salmonella typhimurium; Muller-Hinton agar, 37° C., 18 hours; read-out: MIC
Structures can show the parent of a compound that is named as a salt.
Label Satisfied when MIC is strictly below 0.1 µg/mL; at or above that, label Not satisfied.

Prompt: Lab note: MIC threshold 0.1 µg/mL. Does this molecule come in strictly under it? NC1CCN(c2c(F)cc3c(=O)c(C(=O)CC(=O)C(F)(F)F)cn(C4CC4)c3c2Cl)C1 (stereo not drawn) [Example 38, hydrochloride]
Response: Satisfied

Prompt: Lab note: MIC threshold 0.1 µg/mL. Does this molecule come in strictly under it? CCOC(=O)CC(=O)c1cn(C2CC2)c2c(Cl)c(N3CC=C(CNC)C3)c(F)cc2c1=O [Example 29, hydrochloride]
Response: Not satisfied

* * *

test system: Staphylococcus aureus 285; experiment: In Vitro Anti-Bacterial Activity Test (MIC, agar dilution); format: cell-based; details: Staphylococcus aureus, 285, 18 h, Staphylococcus aureus 285; Muller-Hinton agar, 37° C., 18 hours; read-out: MIC
Structures can show the parent of a compound that is named as a salt.
Property Measured: MIC (µg/mL)
Give your result in µg/mL as a bare value.

Check out these entries, answers already filled in.
{"columns": ["Compound", "Test Target", "Unit Info", "MIC"],
 "data": [
  ["O=C(C[N+](=O)[O-])c1cn(C2CC2)c2c(F)c(N3CCNCC3)c(F)cc2c1=O [Example 6, hydrochloride]", "Staphylococcus aureus 285", "µg/mL", 0.195],
  ["CC(=O)C(C(C)=O)C(=O)c1cn(C2CC2)c2c(Cl)c(N3CCC(N)C3)c(F)cc2c1=O (centres unmarked) [Example 48, hydrochloride]", "Staphylococcus aureus 285", "µg/mL", 0.195],
  ["CCOC(=O)CC(=O)c1cn(C2CC2)c2cc(N3CCNCC3)c(F)cc2c1=O [Example 19, hydrochloride]", "Staphylococcus aureus 285", "µg/mL", 1.56]
]}

# MIC (compound: CCOC(=O)CC(=O)c1cn(C2CC2)c2c(Cl)c(N3CCC(N)C3)c(F)cc2c1=O (centres unmarked) [Example 25, hydrochloride] ) is 0.049

# MIC (compound: CCOC(=O)C(C#N)C(=O)c1cn(C2CC2)c2c(Cl)c(N3CC4=C(CNC4)C3)c(F)cc2c1=O (centres unmarked) [Example 41, hydrochloride] ) is 6.25

# MIC (compound: CC1CN(c2cc3c(cc2F)c(=O)c(C(=O)C[N+](=O)[O-])cn3-c2ccc(F)cc2F)CCN1 (centres unmarked) [Example 10, hydrochloride] ) is 0.391

* * *

test system: Staphylococcus aureus 285; test: In Vitro Anti-Bacterial Activity Test (MIC, agar dilution); type: cell-based; settings: Staphylococcus aureus, 285, 18 h, Staphylococcus aureus 285; Muller-Hinton agar, 37° C., 18 hours; read-out: MIC
Counter-ions that a name gives are not always drawn.
Property Measured: MIC (µg/mL)
Give your result in µg/mL as a bare value.

Check out these entries, answers already filled in.
{"columns": ["Compound", "Unit Info", "MIC"],
 "data": [
  ["NC1CCN(c2c(F)cc3c(=O)c(C(=O)C[N+](=O)[O-])cn(C4CC4)c3c2Cl)C1 (stereo not shown) [Example 11, hydrochloride]", "µg/mL", 0.025],
  ["CNCC1=CCN(c2c(F)cc3c(=O)c(C(=O)CS(C)(=O)=O)cn(C4CC4)c3c2Cl)C1 [Example 46, hydrochloride]", "µg/mL", 0.049],
  ["CCOC(=O)C(C#N)C(=O)c1cn(C2CC2)c2c(Cl)c(N3CC=C(CNC)C3)c(F)cc2c1=O (stereo not shown) [Example 40, hydrochloride]", "µg/mL", 3.12]
]}

Okay, next one:
# MIC (compound: CN[C@@H]1CCN(c2c(F)cc3c(=O)c(C(=O)C[N+](=O)[O-])cn(C4CC4)c3c2OC)C1 [Example 64, hydrochloride] ) is 0.098

* * *

test system: Escherichia coli DC2; test: In Vitro Anti-Bacterial Activity Test (MIC, agar dilution); assay type: cell-based; details: Escherichia coli, DC2, 18 h
Counter-ions that a name gives are not always drawn.
Property Measured: MIC (µg/mL)
Give your result in µg/mL as a bare value.

Check out these entries, answers already filled in.
{"columns": ["Molecule", "Property Measured", "Unit Info", "Result Number"],
 "data": [
  ["O=C(C[N+](=O)[O-])c1cn(C2CC2)c2c(Cl)c(N3CC4=C(CNC4)C3)c(F)cc2c1=O [Example 34, hydrochloride]", "MIC", "µg/mL", 0.098],
  ["CCOC(=O)C(C(=O)OCC)C(=O)c1cn(C2CC2)c2c(F)c(N3CCC(N)C3)c(F)cc2c1=O (stereo not drawn) [Example 20, hydrochloride]", "MIC", "µg/mL", 0.013]
]}

Okay, next one:
# MIC (molecule: CCOC(=O)C(C(=O)OCC)C(=O)c1cn(C2CC2)c2c(Cl)c(N3CC[C@H](N)C3)c(F)cc2c1=O [Example 24, hydrochloride] ) is 0.025

* * *

test system: Salmonella typhimurium; experiment: In Vitro Anti-Bacterial Activity Test (MIC, agar dilution); type: cell-based; conditions: Salmonella enterica; Salmonella typhimurium; Muller-Hinton agar, 37° C., 18 hours; read-out: MIC
Counter-ions that a name gives are not always drawn.
Recorded MIC values for a group of molecules are listed next.
Give your result in µg/mL as a bare value.

{"columns": ["Molecule", "Property Measured", "Unit Info", "Result Number"],
 "data": [
  ["N#CCC(=O)c1cn(C2CC2)c2c(Cl)c(N3CCC(N)C3)c(F)cc2c1=O (stereo not shown) [Example 42, hydrochloride]", "MIC", "µg/mL", 1.56]
]}

# MIC (molecule: NC1CCN(c2c(F)cc3c(=O)c(C(=O)C[N+](=O)[O-])cn(CCF)c3c2F)C1 (stereo not shown) [Example 31, hydrochloride] ) is 0.391

# MIC (molecule: CCOC(=O)CC(=O)c1cn(C2CC2)c2cc(N3CCNCC3)c(F)cc2c1=O [Example 19, hydrochloride] ) is 0.391

# MIC (molecule: CCOC(=O)C(C(=O)OCC)C(=O)c1cn(C2CC2)c2c(Cl)c(N3CC[C@@H](NC)C3)c(F)cc2c1=O [Example 55, hydrochloride] ) is 0.013

# MIC (molecule: CC(=O)C(C(C)=O)C(=O)c1cn(C2CC2)c2c(Cl)c(N3CCC(N)C3)c(F)cc2c1=O (stereo not shown) [Example 48, hydrochloride] ) is 0.391
